- Test system: HEK-293T
- procedureText: Multiplex assay against HEK293T
- Assay type: toxicity, cell-based
- testContext: human, 24 h, 1 µM, compound concentration 1 uM, replicate 2
quantity: Population Fragmented Nuclei (%)
Supply the numeric figure in %, leaving out any unit text.

Here is how some molecules turned out for Population Fragmented Nuclei (%).
CC(C)[C@H](CO)Nc1nc(Nc2cccc(Cl)c2)c2ncn(C(C)C)c2n1
4
CC[C@H](Nc1ncnc2[nH]cnc12)c1nc2cccc(F)c2c(=O)n1-c1ccccc1
17

Okay, now this molecule:
**Q:** Please state recorded Population Fragmented Nuclei (%) (tested on HEK-293T) of Oc1cccc(-c2nc(N3CCOCC3)c3oc4ncccc4c3n2)c1
**A:** 9

###

- System: U2OS
- procedureText: Multiplex assay against U2OS
- Assay type: toxicity, cell-based
- testContext: human, 48 h, 10 µM, compound concentration 10 uM, replicate 2
Entries and their Population Mitotic Cells (%) values follow.
Give the value, in units of %, as a plain number.

// solved cases for Population Mitotic Cells (%) follow
CC(C)[C@H](CO)Nc1nc(Nc2cccc(Cl)c2)c2ncn(C(C)C)c2n1 [PURVALANOLA]
0
c1ccc(-c2oc3ncnc(NC[C@@H]4CCCO4)c3c2-c2ccccc2)cc1
22
CCCCCNC(=N)N/N=C/c1c[nH]c2ccc(OC)cc12.O=C(O)/C=C\C(=O)O [TEGASEROD MALEATE]
0

**Q:** Look up Population Mitotic Cells (%): C=CC(=O)Nc1cc(-n2c(=O)ccc3cnc4ccc(-c5ccc(NS(C)(=O)=O)cc5)cc4c32)ccc1C
**A:** 4

**Q:** Next record, please: CN(c1cc(C(F)(F)F)nc(OCCC(=O)O)n1)c1cccc2c1CCC2
**A:** 80

**Q:** Note, next up: CC(Cc1ccc(O)c(O)c1)C(C)Cc1ccc(O)c(O)c1 (centres undefined) [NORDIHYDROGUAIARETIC ACID]
**A:** 33

**Q:** Similarly, N#Cc1cccc(C(=O)Nc2cc(-c3ccccc3)nn2-c2ccccc2)c1 ?
**A:** 44

**Q:** Please do the same for CC(C)c1cc(Nc2nc(N3CCC[C@H](N)C3)ncc2C(N)=O)cc(C(C)C)n1 as well.
**A:** 4

**Q:** What do you get for Cc1c(P(=S)(c2ccccc2)c2ccccc2)n2ccccc2[n+]1C/C=C/c1ccccc1.[Br-] ?
**A:** 0

###

- System: Fibroblast
- procedureText: Multiplex assay against human fibroblast
- Type: toxicity, cell-based
- testContext: 48 h, 10 µM, compound concentration 10 uM, replicate 2
Listing of recorded Population Tubulin-Different-Phenotype (%) by entry.
Please state the number and follow it with the unit.

Example molecules with recorded Population Tubulin-Different-Phenotype (%):
C=CC(=O)Nc1cc(-n2c(=O)ccc3cnc4ccc(-c5ccc(NS(C)(=O)=O)cc5)cc4c32)ccc1C
50%
CC(C)[C@H](CO)Nc1nc(Nc2cccc(Cl)c2)c2ncn(C(C)C)c2n1
96%
CC(C)C[C@H](NC(=O)[C@H](Cc1ccccc1)NC(=O)CNC(=O)CNC(=O)[C@@H](N)Cc1ccc(O)cc1)C(=O)O
24%

**Q:** Entry under review: CCCCCNC(=N)N/N=C/c1c[nH]c2ccc(OC)cc12.O=C(O)/C=C\C(=O)O [TEGASEROD MALEATE] . Reported Population Tubulin-Different-Phenotype (%)?
**A:** 80%

**Q:** Please answer likewise for CC(C)c1cc(Nc2nc(N3CCC[C@H](N)C3)ncc2C(N)=O)cc(C(C)C)n1
**A:** 55%

**Q:** Then what about the molecule CN(c1cc(C(F)(F)F)nc(OCCC(=O)O)n1)c1cccc2c1CCC2 ?
**A:** 34%

**Q:** Same question for CCCc1cc(C)[nH]c(=O)c1CNC(=O)c1cc(-c2ccc(N3CCN(C(C)C)CC3)nc2)cc2c1cnn2C(C)C please.
**A:** 63%

**Q:** Here is the next molecule: Cc1c(Nc2ccc(S(=O)(=O)N3CCN(C)CC3)cc2F)nc2ccc(-c3cnn(C4CC4)c3)cn2c1=O
**A:** 24%
